All figures here come from patent US6737383B1.

Property: Rape plant response rating; scope: individual compounds
Tested on: rape
Assay: Test B pre/postemergence rape
Assay type: in vivo, Brassica napus
Conditions: Preemergence, Rate 250 g/ha; scale 0 (no effect) to 10 (complete control)
Description: […] At the same time, these crop and weed species were also treated with postemergence applications of test chemicals formulated in the same manner. […] Treated plants and controls were maintained in a greenhouse for twelve to sixteen days, after which all species were compared to controls and visually evaluated. […]
The answer should be a number; do not append a unit.

Answered cases to consult:
[[record]]
smiles_text = "CC(C)N(C(=O)n1oc(=O)n(CCN(C)C(=O)c2ccccc2)c1=O)c1ccccc1"
experimental_result = 0

[[record]]
smiles_text = "CC(C)N(C(=O)n1oc(=O)n(CF)c1=O)c1ccc(F)cc1"
experimental_result = 0

[[record]]
smiles_text = "CCOP(=O)(Cn1c(=O)on(C(=O)N(c2ccc(F)cc2F)C(C)C)c1=O)OCC"
experimental_result = 0

[[record]]
smiles_text = "CC(C)N(C(=O)n1oc(=O)n(CC2=NOCCO2)c1=O)c1ccc(F)cc1F"
experimental_result = 4


From here, focus on the item given below.
Item `CC(C)N(C(=O)n1oc(=O)n(CCCCCl)c1=O)c1ccc(F)cc1` was tested on rape; the reported Rape plant response rating is 7

* * *

Tested on: velvetleaf
Assay: Test B pre/postemergence velvetleaf
Format: in vivo, Abutilon theophrasti
Conditions: Preemergence, Rate 500 g/ha; scale of 0 to 10 where 0 is no effect and 10 is complete control
Consider the following molecules and their measured Plant response rating, Velvetleaf readings.
Number only, please.

Consider the following illustrative entries.
[[record]]
smiles_text = "C=C(Cn1c(=O)on(C(=O)N(c2ccccc2)C(C)C)c1=O)C(C)C"
assay_metric = "Plant response rating, Velvetleaf"
experimental_result = 0

[[record]]
smiles_text = "Cc1nc(C)c(-n2c(=O)on(C(=O)N(c3ccccc3)C(C)C)c2=O)s1"
assay_metric = "Plant response rating, Velvetleaf"
experimental_result = 0


From here, focus on the item given below.
Reported Plant response rating, Velvetleaf of `CCN(C(=O)n1oc(=O)n(N(C)C)c1=O)C1CCCCC1` : 0

* * *

System: crabgrass
Assay: Test B pre/postemergence crabgrass
Type: in vivo, Digitaria sanguinalis
Details: Postemergence, Rate 250 g/ha; scale of 0 to 10, 0 is no effect, 10 is complete control
assay_metric: Crabgrass plant response rating
Keep the answer to the number alone.

Below: 3 molecules and their reported Crabgrass plant response rating.
[[record]]
smiles_text = "CCOC(Cn1c(=O)on(C(=O)N(c2ccc(Cl)cc2)C(C)C)c1=O)OCC"
assay_metric = "Crabgrass plant response rating"
experimental_result = 3

[[record]]
smiles_text = "CC(C)N(C(=O)n1oc(=O)n(Cc2nnc(Cl)s2)c1=O)c1ccc(Cl)cc1"
assay_metric = "Crabgrass plant response rating"
experimental_result = 0

[[record]]
smiles_text = "CC(C)N(C(=O)n1oc(=O)n(Cc2nnc(Cl)s2)c1=O)c1ccc(F)cc1F"
assay_metric = "Crabgrass plant response rating"
experimental_result = 0


Crabgrass plant response rating on crabgrass for `CCOC(Cn1c(=O)on(C(=O)N(c2ccc(F)cc2F)C(C)C)c1=O)OCC` is 8

* * *

System: corn
Experiment: Test B pre/postemergence corn
Assay type: in vivo, Zea mays
Conditions: Rate 500 g/ha, Postemergence; scale 0 to 10
assay_metric: Corn plant response rating
Enter the number alone.

[[record]]
compound = "CN(C(=O)n1oc(=O)n(Cc2ccccc2)c1=O)c1ccccc1 [Compound 153]"
experimental_result = 0

[[record]]
compound = "CC(C)N(C(=O)n1oc(=O)n(C)c1=O)c1ccc(Cl)cc1 [Compound 137]"
experimental_result = 5


The reported Corn plant response rating value, corn, for C=CCn1c(=O)on(C(=O)N(c2ccc(F)cc2)C(C)C)c1=O [Compound 146] reads 0

CC(C)N(C(=O)n1oc(=O)[nH]c1=O)c1ccc(F)cc1 [Compound 164] on corn gives Corn plant response rating = 0

* * *

Known Soybean plant response rating of a selection of compounds
System: soybean
Experiment: Test B pre/postemergence soybean
Assay type: in vivo, Glycine max
Conditions: Postemergence, Rate 125 g/ha; scale 0 to 10, 0 is no effect, 10 is complete control
Experimental: […] At the same time, these crop and weed species were also treated with postemergence applications of test chemicals formulated in the same manner. […] Treated plants and controls were maintained in a greenhouse for twelve to sixteen days, after which all species were compared to controls and visually evaluated. […]
API doc: respond with a numeric literal and nothing else, no unit.

Field: example entries. Status: answers known.
[[record]]
smiles_text = "Cc1noc(C)c1Cn1c(=O)on(C(=O)N(c2ccc(F)cc2F)C(C)C)c1=O"
experimental_result = 7

[[record]]
smiles_text = "CCCCn1c(=O)on(C(=O)N(c2ccc(Cl)cc2)C(C)C)c1=O"
experimental_result = 4

[[record]]
smiles_text = "CCOCn1c(=O)on(C(=O)N(c2ccc(Cl)cc2)C(C)C)c1=O"
experimental_result = 4


Let's switch to this compound now.
Log: soybean, compound `CC(C)C(=O)Cn1c(=O)on(C(=O)N(c2ccc(F)cc2F)C(C)C)c1=O` , Soybean plant response rating = 4

* * *

Test system: rape
Assay: Test B pre/postemergence rape
Assay type: in vivo, Brassica napus
Settings: Preemergence, Rate 500 g/ha; scale 0 (no effect) to 10 (complete control)
assay_metric: Rape plant response rating

[[record]]
compound = "CC(C)N(C(=O)n1oc(=O)n(Cc2ccccc2)c1=O)c1ccccc1 [Compound 94]"
tgt = "rape"
experimental_result = 5

[[record]]
compound = "CC(C)N(C(=O)n1oc(=O)n(-c2ccc(Cl)cc2C(F)(F)F)c1=O)c1ccc(F)cc1 [Compound 20]"
tgt = "rape"
experimental_result = 0

[[record]]
compound = "Cc1ccccc1-n1c(=O)on(C(=O)N(c2cc(OC(C)C)c(Cl)cc2Cl)C(C)C)c1=O [Compound 42]"
tgt = "rape"
experimental_result = 0


Here is the next item to consider.
Sure, the documented Rape plant response rating for Cc1ccccc1-n1c(=O)on(C(=O)N(Cc2ccccc2)C(C)C)c1=O [Compound 72] is 0

* * *

System: rape
Assay: Test B pre/postemergence rape
Type: in vivo, Brassica napus
Conditions: Preemergence, Rate 500 g/ha; scale 0 to 10, 0 is no effect, 10 is complete control
assay_metric: Rape plant response rating

Example cases with answers are listed next.
[[record]]
compound = "CC(C)N(C(=O)n1oc(=O)n(CC2CCC2)c1=O)c1ccc(F)cc1"
assay_metric = "Rape plant response rating"
experimental_result = 7

[[record]]
compound = "CC1CC1Cn1c(=O)on(C(=O)N(c2ccc(F)cc2)C(C)C)c1=O (stereo not drawn)"
assay_metric = "Rape plant response rating"
experimental_result = 8

[[record]]
compound = "CCOP(=O)(OCC)C(C)n1c(=O)on(C(=O)N(c2ccccc2)C(C)C)c1=O (stereo not drawn)"
assay_metric = "Rape plant response rating"
experimental_result = 0

[[record]]
compound = "CC(C)N(C(=O)n1oc(=O)n(CCC(F)(F)F)c1=O)c1ccc(F)cc1"
assay_metric = "Rape plant response rating"
experimental_result = 10


Hey, rape data for Cc1nc(Cl)sc1C(C)n1c(=O)on(C(=O)N(c2ccc(F)cc2F)C(C)C)c1=O (stereo not drawn) : Rape plant response rating came out at 0

Form: item Cc1nc(Cl)sc1C(C)n1c(=O)on(C(=O)N(c2ccc(F)cc2)C(C)C)c1=O (stereo not drawn) ; test system rape; Rape plant response rating: 0

* * *

Test system: pigweed
Assay: Test B pre/postemergence pigweed
Assay type: in vivo, Amaranthus retroflexus
Details: Rate 500 g/ha, Postemergence; scale 0 to 10, 0 is no effect, 10 is complete control
Method: […] At the same time, these crop and weed species were also treated with postemergence applications of test chemicals formulated in the same manner. […] Treated plants and controls were maintained in a greenhouse for twelve to sixteen days, after which all species were compared to controls and visually evaluated. […]
assay_metric: Redroot pigweed plant response rating
Please reply with the value in numeric form only.

# annotated cases, reported Redroot pigweed plant response rating shown
[[record]]
molecule = "CC(C)N(C(=O)n1oc(=O)n(CCCC#N)c1=O)c1ccc(F)cc1F [Compound 675]"
assay_metric = "Redroot pigweed plant response rating"
experimental_result = 8

[[record]]
molecule = "CC(C)N(C(=O)n1oc(=O)n(Cc2nnc(Cl)s2)c1=O)c1ccc(Cl)cc1 [Compound 653]"
assay_metric = "Redroot pigweed plant response rating"
experimental_result = 0

[[record]]
molecule = "CC(C)N(C(=O)n1oc(=O)n(CF)c1=O)c1ccc(F)cc1 [Compound 709]"
assay_metric = "Redroot pigweed plant response rating"
experimental_result = 8

[[record]]
molecule = "CC(C)N(C(=O)n1oc(=O)n(CCCCCl)c1=O)c1ccc(F)cc1 [Compound 712]"
assay_metric = "Redroot pigweed plant response rating"
experimental_result = 8


The value of Redroot pigweed plant response rating measured for the molecule CC(C)N(C(=O)n1oc(=O)n(CCN(C)C(=O)c2ccccc2)c1=O)c1ccccc1 [Compound 761] turned out to be 6
